Data provenance is ChEMBL document CHEMBL3259672.

Assign GI50 to each entry below.
Test system: SN12C
Test: Growth inhibition of human SN12C cells after 48 hrs by SRB assay
Type: functional
Answers are plain numbers, in nM.

// known answers, use as guide
>>> val("COC(=O)COc1cc2c3c(n(CCCN4CCOCC4)c(=O)c2cc1OC)-c1cc2c(cc1C3=O)OCO2")
800
>>> val("COc1cc2c(=O)n(CCCN3CCOCC3)c3c(c2cc1O)C(=O)c1cc2c(cc1-3)OCO2")
200
>>> val("COc1cc2c(=O)n(CCCN3CCOCC3)c3c(c2cc1OCCCN1CCCCC1)C(=O)c1cc2c(cc1-3)OCO2")
400

Below: the item to evaluate.
Recorded GI50 of "COc1cc2c(=O)n(CCCN3CCOCC3)c3c(c2cc1OCCCN)C(=O)c1cc2c(cc1-3)OCO2" , please.
300
